study target: MERTK (UniProt Q12866)
Sequence (Q12866 whole entry, looked up): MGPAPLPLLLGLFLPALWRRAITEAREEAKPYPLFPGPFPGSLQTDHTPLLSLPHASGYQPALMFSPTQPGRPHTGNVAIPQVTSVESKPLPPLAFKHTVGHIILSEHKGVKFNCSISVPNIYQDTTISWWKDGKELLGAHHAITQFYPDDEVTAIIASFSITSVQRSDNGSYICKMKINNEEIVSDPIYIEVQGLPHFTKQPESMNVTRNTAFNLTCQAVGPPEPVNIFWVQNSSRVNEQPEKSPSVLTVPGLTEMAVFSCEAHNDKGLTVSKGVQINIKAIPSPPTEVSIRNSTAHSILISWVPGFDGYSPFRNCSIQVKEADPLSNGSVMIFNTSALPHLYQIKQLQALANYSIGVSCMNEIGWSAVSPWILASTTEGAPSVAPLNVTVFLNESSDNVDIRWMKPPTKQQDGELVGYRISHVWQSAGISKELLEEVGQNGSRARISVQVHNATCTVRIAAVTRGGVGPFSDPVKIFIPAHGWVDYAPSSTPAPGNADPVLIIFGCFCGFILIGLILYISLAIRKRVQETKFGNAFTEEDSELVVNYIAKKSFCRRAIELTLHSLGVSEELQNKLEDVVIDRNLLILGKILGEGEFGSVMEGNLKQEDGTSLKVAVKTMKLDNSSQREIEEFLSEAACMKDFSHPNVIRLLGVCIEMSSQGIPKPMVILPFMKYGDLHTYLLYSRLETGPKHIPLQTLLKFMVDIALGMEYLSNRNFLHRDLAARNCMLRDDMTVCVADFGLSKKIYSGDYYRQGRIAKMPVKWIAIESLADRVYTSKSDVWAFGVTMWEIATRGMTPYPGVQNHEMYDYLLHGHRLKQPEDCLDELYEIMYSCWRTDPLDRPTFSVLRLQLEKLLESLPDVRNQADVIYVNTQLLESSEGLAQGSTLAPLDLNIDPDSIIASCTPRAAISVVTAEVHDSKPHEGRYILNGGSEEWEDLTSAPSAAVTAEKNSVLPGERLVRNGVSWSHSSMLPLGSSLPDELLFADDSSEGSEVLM
measurement protocol: phosphorylation enrichment, bacterial display (enrichment ratio); higher = better substrate or ligand; peptides without Tyr show the background
The label depends only on phosphorylation enrichment: true if it is at least 0.7, false if it is smaller.

Recorded results for 5 sequences are shown here.
# input sequence, class
records = [
    ("HQEPVCSVAFS [TBL1X_Y509_Y509C]", "true"),
    ("RGDCTYAPLLG [AR_Y269_M268T]", "true"),
    ("RKGIRYLTSGL [PIGA_Y82]", "false"),
    ("KTVQDYLKKFF [MMP8_Y36_E38K_YF]", "false"),
    ("KDYETYQSFQN [CTNND2_Y1157_P1159S]", "false"),
]

*Q* Reported phosphorylation enrichment reaches at least 0.7 for KNKELYSDPFD [PDE10A_Y300_L303P] ?
*A* true

*Q* Quick check: does PLAVPYLDKPP [JMJD7_Y31] have phosphorylation enrichment greater than or equal to 0.7?
*A* false

*Q* Is it the case that RVEDAYILTCN [CCT6A_Y229] has phosphorylation enrichment reaching or exceeding 0.7?
*A* false

*Q* Does the reported phosphorylation enrichment for EATKGYPDDPT [G6PD_Y322_L323P] fall at or above the 0.7 mark?
*A* false

*Q* Does phosphorylation enrichment meet or surpass 0.7 for FEREQYADRTR [RBM4_Y355_A359T_YF] ?
*A* false

*Q* API: above_or_equal(metric=phosphorylation enrichment, cutoff=0.7) for item CRERPYGGGGG [FUS_Y526_R521C]
*A* false

*Q* Given the entry RIVRKYKKVRF [F8_Y442_G439V] , answer whether its phosphorylation enrichment meets or surpasses 0.7.
*A* true

*Q* Would you say HPFHVYPQPGM [BAG3_Y114] shows phosphorylation enrichment at minimum 0.7?
*A* false

*Q* Could you verify whether the entry MAPQMYEFHLP [NCAPD2_Y6] shows phosphorylation enrichment of no less than 0.7?
*A* true

*Q* Is reported phosphorylation enrichment greater than or equal to 0.7 here: RVQKRYIFDNV [RCN1_Y115]
*A* false

----------
study target: Fyn (UniProt P06241)
Sequence (P06241 whole entry, looked up): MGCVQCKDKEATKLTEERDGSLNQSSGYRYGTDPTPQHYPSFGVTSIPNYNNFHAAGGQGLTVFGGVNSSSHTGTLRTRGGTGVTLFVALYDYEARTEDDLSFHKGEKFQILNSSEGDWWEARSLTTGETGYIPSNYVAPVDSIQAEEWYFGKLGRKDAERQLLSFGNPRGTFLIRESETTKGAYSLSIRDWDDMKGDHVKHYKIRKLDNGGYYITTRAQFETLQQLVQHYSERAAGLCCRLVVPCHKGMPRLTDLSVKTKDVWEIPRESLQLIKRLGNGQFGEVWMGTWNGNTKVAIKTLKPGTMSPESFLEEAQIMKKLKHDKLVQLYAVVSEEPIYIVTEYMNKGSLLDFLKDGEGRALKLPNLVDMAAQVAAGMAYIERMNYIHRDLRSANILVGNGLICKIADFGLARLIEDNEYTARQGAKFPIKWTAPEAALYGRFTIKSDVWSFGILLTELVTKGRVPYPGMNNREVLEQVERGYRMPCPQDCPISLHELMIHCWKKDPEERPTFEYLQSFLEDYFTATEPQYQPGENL
measurement protocol: phosphorylation enrichment, bacterial display (enrichment ratio); higher = better substrate or ligand; peptides without Tyr show the background
Record yes whenever phosphorylation enrichment is at 0.5 or higher; record no when lower.

A selection of reference data follows.
# input sequence, class
measured = [
    ("ADCRYYTFPQM [GAMT_Y223_A224T]", "yes"),
    ("QLFGAYLRIHA [BSCL2_Y213_YF]", "yes"),
    ("QRPGLYDRPGA [HNRNPH2_Y210_P209L]", "yes"),
    ("KVKEQYQDVPM [PKP2_Y659]", "no"),
    ("VPDTNYTSDEE [STK33_Y439_A437T]", "yes"),
]

*Q* Answer whether phosphorylation enrichment of CSRCFYQLTKL [AR_Y858_R856C] is greater than or equal to 0.5.
*A* no

----------
study target: SHP2-C SH2;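 further: peptide library displayed on the E. coli surface as eCPX fusions, selected cells deep-sequenced, score is each peptide's frequency after selection divided by its frequency in the input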
measurement protocol: SH2 binding enrichment of the phosphorylated peptide, bacterial display (enrichment ratio); higher = better substrate or ligand; peptides without Tyr show the background
Outcome: Satisfied for SH2 binding enrichment of at least 0.8; Not satisfied for anything lower.

Examples with answers:
# input sequence, study target, class
data = [
    ("FPAVGYHKPHI [IDS_Y225_L221P]", "SHP2-C SH2", "Satisfied"),
    ("KNITEYCRDLI [RECQL_Y492]", "SHP2-C SH2", "Not satisfied"),
    ("ETRWNYHFEVV [GCNT3_Y267_K266N]", "SHP2-C SH2", "Not satisfied"),
    ("GHGRFYMKEAI [PGM1_Y66_D62H]", "SHP2-C SH2", "Satisfied"),
]

As a next step, examine the sequence that follows.
*Q* Evaluate IPKTWYSAEQF [CD207_Y217] : SH2 binding enrichment at minimum 0.8?
*A* Satisfied

----------
study target: EPHB1 (UniProt P54762)
Sequence (P54762 whole entry, looked up): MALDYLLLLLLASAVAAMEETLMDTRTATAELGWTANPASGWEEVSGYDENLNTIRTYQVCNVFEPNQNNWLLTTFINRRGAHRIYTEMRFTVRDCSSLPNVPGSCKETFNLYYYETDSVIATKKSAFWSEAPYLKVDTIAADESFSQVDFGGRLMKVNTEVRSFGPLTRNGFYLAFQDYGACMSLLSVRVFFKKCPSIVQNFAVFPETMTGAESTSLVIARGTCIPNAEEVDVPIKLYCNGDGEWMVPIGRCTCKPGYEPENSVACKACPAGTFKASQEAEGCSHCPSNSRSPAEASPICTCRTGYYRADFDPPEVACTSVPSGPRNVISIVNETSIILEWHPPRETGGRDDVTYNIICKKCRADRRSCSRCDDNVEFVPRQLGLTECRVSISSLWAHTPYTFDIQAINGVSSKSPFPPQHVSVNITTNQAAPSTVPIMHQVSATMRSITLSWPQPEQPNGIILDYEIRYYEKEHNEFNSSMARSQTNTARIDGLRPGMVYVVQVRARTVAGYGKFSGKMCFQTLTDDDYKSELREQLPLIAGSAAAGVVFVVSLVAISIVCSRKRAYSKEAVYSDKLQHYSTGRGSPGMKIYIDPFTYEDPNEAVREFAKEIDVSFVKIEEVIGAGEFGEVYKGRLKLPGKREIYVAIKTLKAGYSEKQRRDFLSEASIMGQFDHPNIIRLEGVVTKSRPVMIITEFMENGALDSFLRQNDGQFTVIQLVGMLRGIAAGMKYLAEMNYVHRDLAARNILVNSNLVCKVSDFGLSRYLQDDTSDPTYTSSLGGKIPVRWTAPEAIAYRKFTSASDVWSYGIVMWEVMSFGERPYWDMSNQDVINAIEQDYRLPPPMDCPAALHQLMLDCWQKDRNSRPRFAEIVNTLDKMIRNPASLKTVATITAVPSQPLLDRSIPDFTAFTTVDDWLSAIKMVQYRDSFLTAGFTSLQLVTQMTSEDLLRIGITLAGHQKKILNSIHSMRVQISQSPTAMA
measurement protocol: phosphorylation enrichment, bacterial display (enrichment ratio); higher = better substrate or ligand; peptides without Tyr show the background
// values below are reported phosphorylation enrichment
Response field accepts a number only; no unit should be typed.

Illustrative cases are given below, each with its answer.
# input sequence, study target, phosphorylation enrichment
data = [
    ("FEEDSYSHVMA [FDPS_Y388_I391V_YF]", "EPHB1 (UniProt P54762)", 0.696),
    ("KMKGDYYCYLA [YWHAG_Y130_R132C]", "EPHB1 (UniProt P54762)", 4.58),
    ("EWQQTYTFDSG [JUP_Y20_YF]", "EPHB1 (UniProt P54762)", 0.494),
]

*Q* Quick one: give measured phosphorylation enrichment for KSNSDYVDVLP [SH2D1B_Y127_N122K]
*A* 3.1

*Q* Please give measured phosphorylation enrichment of the following entry: KKHFSYAWPFF [BRDT_Y291_YF]
*A* 0.467

*Q* Write down phosphorylation enrichment measured for item GIVEDYRPPVY [ACVRL1_Y421_F425V]
*A* 0.524

*Q* Tell me its phosphorylation enrichment given AAVDEYLEYRR [FAM221A_Y17] as the entry.
*A* 0.531

*Q* Please report phosphorylation enrichment for the following sequence: HELFVYKSDEN [DOCK3_Y548_C550S_YF]
*A* 0.706

*Q* Retrieve phosphorylation enrichment measured for FGSIMYEFVGK [SLC18A1_Y251_V249I] and print it.
*A* 1.73

*Q* Tell me phosphorylation enrichment reported for FDAHIYEGRVI [PRKCD_Y64]
*A* 0.544

----------
study target: FGFR3 (UniProt P22607)
Sequence (P22607 whole entry, looked up): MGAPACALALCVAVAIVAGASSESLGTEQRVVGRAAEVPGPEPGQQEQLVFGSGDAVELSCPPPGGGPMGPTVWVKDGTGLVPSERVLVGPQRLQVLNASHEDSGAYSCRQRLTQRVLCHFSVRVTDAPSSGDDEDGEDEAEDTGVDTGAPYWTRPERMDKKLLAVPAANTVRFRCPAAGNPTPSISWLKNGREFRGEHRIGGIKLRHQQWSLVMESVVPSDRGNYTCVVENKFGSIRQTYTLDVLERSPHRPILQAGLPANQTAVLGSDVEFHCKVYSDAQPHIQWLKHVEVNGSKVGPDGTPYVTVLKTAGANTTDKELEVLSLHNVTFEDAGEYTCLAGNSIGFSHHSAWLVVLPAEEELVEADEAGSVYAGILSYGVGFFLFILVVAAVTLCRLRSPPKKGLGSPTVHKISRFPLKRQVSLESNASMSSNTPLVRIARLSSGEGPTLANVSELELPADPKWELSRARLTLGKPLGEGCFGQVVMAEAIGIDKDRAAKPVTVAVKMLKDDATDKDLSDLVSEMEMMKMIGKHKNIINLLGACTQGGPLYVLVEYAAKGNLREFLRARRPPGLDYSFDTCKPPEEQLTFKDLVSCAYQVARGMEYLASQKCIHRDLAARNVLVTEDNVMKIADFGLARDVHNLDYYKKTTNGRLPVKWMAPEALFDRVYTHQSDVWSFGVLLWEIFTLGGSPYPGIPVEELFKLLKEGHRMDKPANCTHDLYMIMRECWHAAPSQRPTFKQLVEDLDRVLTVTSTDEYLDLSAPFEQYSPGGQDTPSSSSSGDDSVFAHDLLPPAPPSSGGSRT
measurement protocol: phosphorylation enrichment, bacterial display (enrichment ratio); higher = better substrate or ligand; peptides without Tyr show the background
Each entry below carries its recorded phosphorylation enrichment.
# answer = number (no unit)

# input sequence, phosphorylation enrichment
measured = [
    ("INSLKYAFNIS [EIF2B5_Y583_YF]", 0.567),
    ("QPGTDYKIYRY [FN1_Y1970_L1974R]", 0.882),
    ("FGSIMYEFVGK [SLC18A1_Y251_V249I]", 0.652),
    ("LLKKMYLMLDN [STAT1_Y203]", 0.721),
    ("VAMDDYLKNVM [LRRK2_Y707]", 0.59),
    ("PESCLYKESWI [IQGAP2_Y630_L635I]", 1.17),
    ("AAVDEYLEYRR [FAM221A_Y17]", 0.522),
    ("SSAAGYACLAY [MVD_Y131]", 0.736),
]

*Q* Please list phosphorylation enrichment recorded for the sequence GQKVAYGGTGD [ALDH3A1_Y305]
*A* 0.416

----------
Tested on: c-Src
measurement protocol: phosphorylation enrichment, bacterial display (enrichment ratio); higher = better substrate or ligand; peptides without Tyr show the background
Would you please tag the item class 1 when its phosphorylation enrichment is 0.6 or above, and class 0 when it is below?

Some solved cases for reference:
# input sequence, class
rows = [
    ("AIMSFYAALIN [RYR1_Y2426_D2431N]", "class 0"),
    ("TVEDHDYEGGI [TKT_Y563_Y563D]", "class 0"),
    ("PVQAASQKVVA [HBB_Y131_Y131S]", "class 0"),
    ("SVVVPYEPREV [TP53_Y220_P223R]", "class 0"),
    ("AAFNRYDQERF [CDC73_Y293_YF]", "class 0"),
    ("MVIPNYSSRTE [UROC1_Y185]", "class 0"),
    ("SVTYTYSPALN [TP53_Y126_C124Y]", "class 1"),
    ("EHAGEYGAEAL [HBA1_Y25_A20E]", "class 0"),
]

*Q* Please tell me: is the sequence HLLRIYYDITD [MMP27_Y307_W304L] at or over 0.6 in terms of phosphorylation enrichment?
*A* class 1

----------
study target: FGFR1 (UniProt P11362)
Sequence (P11362 whole entry, looked up): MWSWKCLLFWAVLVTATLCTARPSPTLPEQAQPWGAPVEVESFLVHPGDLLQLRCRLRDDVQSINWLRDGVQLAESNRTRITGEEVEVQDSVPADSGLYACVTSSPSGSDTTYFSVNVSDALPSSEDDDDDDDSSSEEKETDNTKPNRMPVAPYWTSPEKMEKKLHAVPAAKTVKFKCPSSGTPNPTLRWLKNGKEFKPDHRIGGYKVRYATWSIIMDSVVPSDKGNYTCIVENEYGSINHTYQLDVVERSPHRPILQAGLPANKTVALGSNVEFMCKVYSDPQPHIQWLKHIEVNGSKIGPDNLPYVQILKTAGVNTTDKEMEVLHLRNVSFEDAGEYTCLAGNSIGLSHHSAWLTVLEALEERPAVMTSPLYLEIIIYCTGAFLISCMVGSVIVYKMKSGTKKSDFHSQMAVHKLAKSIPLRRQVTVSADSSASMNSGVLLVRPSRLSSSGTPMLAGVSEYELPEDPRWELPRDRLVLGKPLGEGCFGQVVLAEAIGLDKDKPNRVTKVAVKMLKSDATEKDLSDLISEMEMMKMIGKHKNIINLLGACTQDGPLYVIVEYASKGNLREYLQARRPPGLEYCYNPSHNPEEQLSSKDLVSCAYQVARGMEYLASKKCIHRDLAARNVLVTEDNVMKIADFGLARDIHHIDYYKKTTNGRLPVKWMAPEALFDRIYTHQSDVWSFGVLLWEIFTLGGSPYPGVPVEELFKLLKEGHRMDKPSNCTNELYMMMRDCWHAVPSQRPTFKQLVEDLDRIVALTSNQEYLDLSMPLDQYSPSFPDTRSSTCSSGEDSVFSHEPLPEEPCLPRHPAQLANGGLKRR
measurement protocol: phosphorylation enrichment, bacterial display (enrichment ratio); higher = better substrate or ligand; peptides without Tyr show the background
Measured phosphorylation enrichment of individual entries
Please give only the number in your answer, with no unit.

Before answering, review these 5 worked examples.
# input sequence, endpoint value
rows = [
    ("QNAGDYYDLYG [PTPN11_Y62_T59A]", 19.5),
    ("FGGTVYHSPVS [PRC1_Y511]", 0.473),
    ("KSRQIYDAFIM [GRK3_Y109_R104K_YF]", 0.576),
    ("LIYTNYEAGKD [GSTP1_Y112]", 1.78),
    ("CTTIHYNCMCN [TP53_Y234_Y236C]", 0.417),
]

# context switch: different sequence, same phosphorylation enrichment
*Q* # lookup: FGFR1 (UniProt P11362) phosphorylation enrichment, key = HRGHLYLAIEF [TEK_Y899_Y897H_YF]
*A* 1.41
